Taken from patent US11254671B2.

IC50 values for the compounds below.
test system: phosphorylated Akt at serine 473 (pAKTs473) in primary human lung fibroblasts; assay: Highthroughput phosphorylated Akt (Ser473) in vitro immunoassay (MSD); type: cell-based; details: Fibroblast, 1 h compound, PDGF-BB 10 ng/ml for 10 min, mean of multiple experiments, read-out: mean pIC50, inhibition of pAkt (Ser473) (converted)

[
  {
    "COMPOUND": "CC[C@H]1COCCN1c1cc(CS(C)(=O)=O)cc(-c2ccc3[nH]c(CN(C)CC)cc3n2)n1 [Example 14]",
    "IC50": "3.16 to 316 nM"
  },
  {
    "COMPOUND": "CC[C@H]1COCCN1c1cc(C2(S(C)(=O)=O)CCOCC2)cc(-c2ccc3[nH]c(CO)cc3n2)n1 [Example 33]",
    "IC50": "2.51 to 10 nM"
  },
  {
    "COMPOUND": "CNCc1cc2nc(-c3cc(CS(C)(=O)=O)cc(N4CCOC[C@@H]4C)n3)ccc2[nH]1 [Example 6]",
    "IC50": "3.16 to 316 nM"
  },
  {
    "COMPOUND": "CNCc1cc2nc(-c3cc(CS(C)(=O)=O)cc(N4CCOC[C@H]4C)n3)ccc2[nH]1 [Example 26]",
    "IC50": "3.16 to 316 nM"
  },
  {
    "COMPOUND": "CNCc1cc2nc(-c3cc(C4(S(C)(=O)=O)CCOCC4)cc(N4C5CCC4COC5)n3)ccc2[nH]1 [Example 40]",
    "IC50": "3.16 to 316 nM"
  },
  {
    "COMPOUND": "CC[C@H]1COCCN1c1cc(CS(=O)(=O)C2CC2)cc(-c2ccc3[nH]c(CNC)cc3n2)n1 [Example 10]",
    "IC50": "2.51 to 10 nM"
  }
]

====

IC50 values for the compounds below.
Tested on: phosphorylated Akt at serine 473 (pAKTs473) in primary human lung fibroblasts
Assay: Highthroughput phosphorylated Akt (Ser473) in vitro immunoassay (MSD)
Format: cell-based
Conditions: Fibroblast, 1 h compound, PDGF-BB 10 ng/ml for 10 min, mean of multiple experiments, read-out: mean pIC50, inhibition of pAkt (Ser473) (converted)
Excerpt: Highthroughput Phosphorylated Akt (Ser473) In Vitro Immunoassay Immunoassay to measure effect of test compounds on phosphorylated Akt at serine 473 (pAKTs473) in primary human lung fibroblasts (Lonza Group Ltd, Basel, Switzerland, Catalogue No. CC-2512) using the MesoScale Discovery (MSD) platform to quantify levels of total Akt and pAKTser473. […]

[
  {
    "MOLECULE SMILES": "CC[C@H]1COCCN1c1cc(CS(C)(=O)=O)cc(-c2ccc3[nH]c(CO)cc3n2)n1",
    "IC50": "2.51 to 10 nM"
  },
  {
    "MOLECULE SMILES": "CC[C@H]1COCCN1c1cc(CS(=O)(=O)NC)cc(-c2ccc3[nH]c(CNC)cc3n2)n1",
    "IC50": "3.16 to 316 nM"
  },
  {
    "MOLECULE SMILES": "CC[C@H]1COCCN1c1cc(C2(S(=O)(=O)C3CC3)CC2)cc(-c2ccc3[nH]c(CNC)cc3n2)n1",
    "IC50": "3.16 to 316 nM"
  },
  {
    "MOLECULE SMILES": "CNCc1cc2nc(-c3cc(C(C)(C)S(C)(=O)=O)cc(N4CCOC[C@@H]4C)n3)ccc2[nH]1",
    "IC50": "3.16 to 316 nM"
  },
  {
    "MOLECULE SMILES": "CCS(=O)(=O)C(C)(C)c1cc(-c2ccc3[nH]c(CNC)cc3n2)nc(N2CCOC[C@@H]2C)c1",
    "IC50": "3.16 to 316 nM"
  },
  {
    "MOLECULE SMILES": "CC[C@H]1COCCN1c1cc(CS(C)(=O)=O)cc(-c2ccc3[nH]c(CNC)cc3n2)n1",
    "IC50": "3.16 to 316 nM"
  },
  {
    "MOLECULE SMILES": "CC[C@H]1COCCN1c1cc(C(C)(C)S(C)(=O)=O)cc(-c2ccc3[nH]c(CN)cc3n2)n1",
    "IC50": "3.16 to 316 nM"
  },
  {
    "MOLECULE SMILES": "CC[C@H]1COCCN1c1cc(C2(S(C)(=O)=O)CCOCC2)cc(-c2ccc3[nH]c(CN(C)CC)cc3n2)n1",
    "IC50": "3.16 to 316 nM"
  },
  {
    "MOLECULE SMILES": "CC[C@H]1COCCN1c1cc(C2(S(C)(=O)=O)CCOCC2)cc(-c2ccc3[nH]c(CN)cc3n2)n1",
    "IC50": "2.51 to 10 nM"
  },
  {
    "MOLECULE SMILES": "CC[C@H]1COCCN1c1cc(C2(S(C)(=O)=O)CC2)cc(-c2ccc3[nH]c(CNC)cc3n2)n1",
    "IC50": "2.51 to 10 nM"
  },
  {
    "MOLECULE SMILES": "CC[C@H]1COCCN1c1cc(C(C)(C)S(N)(=O)=O)cc(-c2ccc3[nH]c(CNC)cc3n2)n1",
    "IC50": "3.16 to 316 nM"
  },
  {
    "MOLECULE SMILES": "CNCc1cc2nc(-c3cc(C4(S(C)(=O)=O)CC4)cc(N4CCOC[C@@H]4C)n3)ccc2[nH]1",
    "IC50": "3.16 to 316 nM"
  },
  {
    "MOLECULE SMILES": "CC[C@H]1COCCN1c1cc(C2(S(N)(=O)=O)CCOCC2)cc(-c2ccc3[nH]c(CNC)cc3n2)n1",
    "IC50": "3.16 to 316 nM"
  },
  {
    "MOLECULE SMILES": "CNCc1cc2nc(-c3cc(C(C)(C)S(C)(=O)=O)cc(N4[C@@H]5CC[C@H]4COC5)n3)ccc2[nH]1",
    "IC50": "3.16 to 316 nM"
  },
  {
    "MOLECULE SMILES": "CC[C@H]1COCCN1c1cc(CS(N)(=O)=O)cc(-c2ccc3[nH]c(CNC)cc3n2)n1",
    "IC50": "3.16 to 316 nM"
  }
]
